// data source = the C3SDB collision cross section collection

Assign collision cross section (N2) to each entry below.
- Condition description: [M+H]+; instrument: TW; calibrated with phosphatidylcholines (ESI+) and phosphatidylethanolamines (ESI-)
Give bare numbers, in Å².

For orientation, consider the following solved cases.
{"Molecule": "CCCCC/C=C\\C/C=C\\CCCCCCCCCC(=O)O[C@H](COC(=O)CCCCCCCCC/C=C\\CCCCCC)COP(=O)([O-])OCC[N+](C)(C)C [PC(38:3)]", "Data value": 291.9}
{"Molecule": "CCCCCCCCCCCCC=CC[C@@H](O)[C@H](CO)NC(=O)CC=CCCCCCCCCCCCCCC [Cer(d18:1/18:1)]", "Data value": 257.6}
{"Molecule": "CCCCC/C=C\\C/C=C\\C/C=C\\C/C=C\\CCCCCC(=O)O[C@H](COC(=O)CCCCCCC/C=C\\CCCCCCCC)COP(=O)([O-])OCC[N+](C)(C)C [PC(40:5)]", "Data value": 295.5}

Please give collision cross section (N2), item by item, for the list that follows.
1. CCCCCCCCCCCCC=CC[C@@H](O)[C@H](CO[C@@H]1O[C@H](CO)[C@@H](O)C(O)C1O)NC(=O)CCCCCCCCCCCCCCCCCCC (some centres not stated) [GlcCer(d18:1/20:0)]
2. CCCCCCCCCCCCC=CC[C@@H](O)[C@H](CO[C@@H]1O[C@H](CO)[C@@H](O)C(O)C1O)NC(=O)CCCCCCCCCCCCCCCCC (some centres not stated) [GlcCer(d18:1/18:0)]
3. CCCCCCCCCC/C=C\CCCCCCCCCC(=O)O[C@H](COC(=O)CCCCCCCCCCCCC)COP(=O)(O)OCCN [PE(36:1)]

1. 287.8
2. 282.6
3. 278.7

Take each entry in turn and give its collision cross section (N2).
1. CC/C=C\C/C=C\C/C=C\C/C=C\C/C=C\C/C=C\CCC(=O)O[C@H](CO/C=C\CCCCCCCCCCCCCC)COP(=O)(O)OCCN [PE(p38:6)]
2. CC/C=C\C/C=C\C/C=C\C/C=C\CCCCC(=O)O[C@H](COC(=O)CCCCCC/C=C\C/C=C\C/C=C\CCCCC)COP(=O)([O-])OCC[N+](C)(C)C [PC(38:7)]
3. CCCCC/C=C\C/C=C\C/C=C\C/C=C\CCCCCC(=O)O[C@H](COC(=O)CCCC/C=C\C/C=C\C/C=C\CCCCC)COP(=O)([O-])OCC[N+](C)(C)C [PC(40:7)]
4. CCCCCCCCCCCCC=CC[C@@H](O)[C@H](CO[C@@H]1O[C@H](CO)[C@@H](O)C(O)C1O)NC(=O)CCCCCCCCCCCCCCCCCCCCC (some centres not stated) [GlcCer(d18:1/22:0)]
5. CCCCC/C=C\C/C=C\C/C=C\CCCCC(=O)OC[C@H](COP(=O)([O-])OCC[N+](C)(C)C)OC(=O)CCCCCCCCC/C=C\C/C=C\CCCCC [PC(38:5)]
6. CCCCCCCCCCCCC=CC[C@@H](O)[C@H](CO)NC(=O)CCCCCCCCCCCCCCCCCCCCCCC [Cer(d18:1/24:0)]

276.9
286.5
293.2
293.2
289.7
279.1

---

- Condition description: [M+Na]+; instrument: DT; stepped-field
Observation type: collision cross section (N2)
Quick note: unit goes after the number.

{"Compound": "CC/C=C\\C/C=C\\C/C=C\\C/C=C\\C/C=C\\CCCC(=O)OC[C@H](COP(=O)(O)OC[C@H](N)C(=O)O)OC(=O)CCCCCCCCCCC/C=C\\C/C=C\\CCCCC [PS(42:7)]", "Observation type": "collision cross section (N2)", "Data value": "304.7 Å²"}
{"Compound": "CCCCCCCCCCCCC=CC[C@@H](O)[C@H](CO[C@@H]1O[C@H](CO)[C@@H](O)C(O)C1O)NC(=O)CCCCCCCCCCCCCCCCCC (stereo partly drawn) [GlcCer(37:1)]", "Observation type": "collision cross section (N2)", "Data value": "286.8 Å²"}

Note: attention shifts to another entry.
What does the record list as collision cross section (N2) for OC[C@H]1O[C@@](CO)(O[C@H]2O[C@H](CO)[C@@H](O)[C@H](O)[C@H]2O)[C@@H](O[C@H]2O[C@H](CO)[C@@H](O)[C@H](O)[C@H]2O)[C@@H]1O [Melezitose] ?
202.7 Å²
